The measured values listed here are drawn from PubChem BioAssay (Tox21).

Procedure Text: qHTS assay to identify small molecule antagonists of the retinoic acid receptor (RAR) signaling pathway (AID 1159552; also: % is scaled to controls: 0 for no effect and ±100 for the full control effect; nearly all actives have a fitted effect of over 50% in size)
Condition Parameters: C3RL4 RARE luciferase reporter, retinol-stimulated, 6 h; series mostly up to 92.4 µM
Results filed as inconclusive are left out. The source made the active and inactive calls. Calls follow the shape of the dose curve; as a rule, active = well fitted inhibition curve with a large enough effect in the repeat runs; inconclusive = weak or mixed curves, or effect the other way; inactive = no such curve, though single readings can be large or run the other way.
Endpoint: activity, negative = inhibition

CC(=O)Nc1cccc(C)c1; inactive
CC(C)C(=O)OCc1cccc(OC(=O)[C@@H]2N3C(=O)[C@@H](NC(=O)Cc4ccccc4)[C@H]3SC2(C)C)c1; inactive
O=C(O)Cc1ccc(Cl)cc1Cl; inactive
O=C(OCC1(COC(=O)c2cccnc2)CCCC(COC(=O)c2cccnc2)(COC(=O)c2cccnc2)C1O)c1cccnc1; inactive
CCCCCCCCC1CCC(=O)O1 (stereo not given); inactive

For each of the compounds below, state activity, negative = inhibition.
1. O=C(OCC(COC(=O)c1cccnc1)(COC(=O)c1cccnc1)COC(=O)c1cccnc1)c1cccnc1
2. O=C1c2cccc3c2[C@H](CCC3)CN1[C@@H]1CN2CCC1CC2
3. CCC(C)(CCC(C)C)C(=O)O (stereo not given)
4. Cc1cc2cc3c(C)cc(=O)oc3c(C)c2o1
5. CCCOC(=O)C(C)O (stereo not given)
6. O=C(O)C(=O)Cc1ccccc1
7. O=C1c2ccccc2C(=O)c2cc(S(=O)(=O)O)ccc21

## Output
1: inactive; 2: inactive; 3: inactive; 4: inactive; 5: inactive; 6: inactive; 7: inactive

For each of the compounds below, state activity, negative = inhibition.
1. Nc1ccc2cc(S(=O)(=O)O)cc(O)c2c1
2. C=CC(OCC)OCC
3. CC(=O)c1ccc2c(c1)Cc1ccccc1-2
4. CCCCCCCCCC(C)=O
5. CC(C)(C)OC(=O)c1ccc(O)cc1
6. O=C(Nc1ccc(Cl)c(Cl)c1)C1CC1

## Output
1. inactive
2. inactive
3. inactive
4. inactive
5. inactive
6. inactive

For each of the compounds below, state activity, negative = inhibition.
1. CCOCCOCCOCC
2. CC(C)(C)c1cc(CCC(=O)NN)cc(C(C)(C)C)c1O

## Output
1. inactive
2. inactive

###

Tested System: Cytochrome P450 2C19 (Homo sapiens)
Procedure Text: Cytochrome P450 Family 2 Subfamily C Member 19 (CYP2C19) small molecule antagonists: luciferase reporter qHTS assay (AID 1671197); also: nearly all actives have a fitted effect of over 65% in size; also: potency is read from the fitted curve at half-maximal effect
Condition Parameters: P450-Glo CYP2C19 enzyme, luciferin luminescence, 1 h; series mostly up to 115 µM
Records with an inconclusive call do not appear. Activity calls are given as the source filed them. The call rests on the fitted dose curve; in most records, active means well fitted inhibition curve with a large enough effect in the repeat runs; inconclusive means weak or mixed curves; inactive means no such curve, though single readings can be large or run the other way.
Endpoint: Potency

Observe how each entry below is paired with its result.
CCOC(=O)CC(=O)c1ccccc1; 39.9 µM (active)
CC(CC=O)CCCC(C)(C)O (stereo not drawn); 79.2 µM (active)
OCCCCC(O)CO (stereo not drawn); inactive
OC[C@H](Cc1cccc(O)c1)[C@H](CO)Cc1cccc(O)c1; 32.5 µM (active)
CC(C)OC(=O)CCCCC(=O)OC(C)C; inactive

For each of the compounds below, state Potency.
1. CCCCCCN
2. CN=C(NC#N)Nc1ccc(C2=NNC(=O)CC2C)cc1 (stereo not drawn)
3. On1nnc2ccccc21
4. C=CC(OCC)OCC
5. O=C(NCCN1CCOCC1)c1ccc(Cl)cc1
6. COc1cc2c(cc1OC)C(=O)CC2

## Output
1: inactive; 2: inactive; 3: inactive; 4: inactive; 5: 34.7 µM (active); 6: inactive

For each of the compounds below, state Potency.
1. Cc1ccccc1N=O
2. CCC(C)(CCC(C)C)C(=O)O (stereo not drawn)
3. COP(=O)(OC)OC(c1ccc(Cl)cc1)P(=O)(OC)OC (stereo not drawn)
4. CCCCCCCCCCCCCC
5. COc1cc(NS(=O)(=O)c2ccc(N)cc2)nc(OC)n1
6. COc1ccc2c(c1)C(=O)N(CCc1ccc(S(=O)(=O)NC(=O)NC3CCCCC3)cc1)C(=O)C2(C)C

## Output
inactive
inactive
inactive
inactive
inactive
inactive

For each of the compounds below, state Potency.
1. O=C1CCCC(=O)O1
2. Cc1cccc(OCC(O)CNC(C)(C)C)c1C (stereo not drawn)
3. C=C1CC/C=C(\C)CC[C@@H]2[C@@H]1CC2(C)C
4. FC(F)(F)c1ccccc1-n1ccnc1

## Output
1: inactive; 2: inactive; 3: inactive; 4: 5.49 µM (active)

###

Tested System: Peroxisome proliferator-activated receptor delta (Homo sapiens) (UniProt Q03181)
Sequence (Q03181 whole entry, looked up): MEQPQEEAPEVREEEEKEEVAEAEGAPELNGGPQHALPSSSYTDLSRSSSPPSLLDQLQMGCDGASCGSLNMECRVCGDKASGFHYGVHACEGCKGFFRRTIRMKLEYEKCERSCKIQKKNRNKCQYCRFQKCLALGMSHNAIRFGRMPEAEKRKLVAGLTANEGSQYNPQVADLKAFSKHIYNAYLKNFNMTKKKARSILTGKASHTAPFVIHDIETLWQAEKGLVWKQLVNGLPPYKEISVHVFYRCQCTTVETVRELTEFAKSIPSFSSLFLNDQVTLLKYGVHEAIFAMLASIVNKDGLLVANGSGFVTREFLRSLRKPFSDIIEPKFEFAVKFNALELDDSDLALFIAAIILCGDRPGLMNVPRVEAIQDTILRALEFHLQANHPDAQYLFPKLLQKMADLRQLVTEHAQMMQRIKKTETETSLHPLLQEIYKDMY
Procedure Text: qHTS assay to identify small molecule antagonists of the peroxisome proliferator-activated receptor delta (PPARd) signaling pathway (AID 743215);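 also: cells stimulated with agonist L165041 at 300 nM final during compound exposure; % is scaled to controls: 0 for no effect and ±100 for the full control effect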
Condition Parameters: HEK293H PPARd-UAS-bla, beta-lactamase FRET ratio, antagonist, 17 h; series mostly up to 62 µM
Inconclusive results are not listed. Calls of active or inactive are those of the source. The call rests on the fitted dose curve; in most records, active means well fitted inhibition curve with a large enough effect in the signal ratio in the repeat runs (not every such curve was filed as active); inconclusive means weak or mixed curves, or effect the other way; inactive means no such curve, though single readings can be large or run the other way; the % refers to the signal ratio.
Endpoint: ratio activity, negative = inhibition

Observe how each entry below is paired with its result.
CC(C)NCC(O)COc1ccc(COCCOC(C)C)cc1 (stereo not drawn); inactive
CC(CN)CC(C)(C)CCN (stereo not drawn); inactive
CCCC/C=C/C=C\C=O; inactive
O=C(OCC(COC(=O)c1cccnc1)(COC(=O)c1cccnc1)COC(=O)c1cccnc1)c1cccnc1; inactive
Cc1ccsc1/C=C/C1=NCCCN1C; inactive
C=COCCOCCOCCOC=C; inactive
CC(C)N(c1ccccc1)C(C)C; inactive
CN1CCN(CC(=O)N2c3ccccc3C(=O)Nc3cccnc32)CC1; 1.31% [at 6.26 µM] (inactive)
CC1(CO)CN(c2ccccc2)NC1=O (stereo not drawn); inactive
COCCOCCOCCOCCOCCO; inactive

For each of the compounds below, state ratio activity, negative = inhibition.
1. O=C(/N=N/C(=O)OCc1ccccc1)OCc1ccccc1
2. C[Si](C)=O

## Output
1: inactive; 2: 22.7% [at 6.26 µM] (inactive)

Form field ratio activity, negative = inhibition, entry "Nc1ccc(S(=O)(=O)Nc2ccc(Cl)nn2)cc1" : inactive

###

Procedure Text: qHTS RealTime-Glo MT Cell Viability Assay in HEK293 cells - 8 hour (AID 1224887); also: top concentration of the series differs between compounds; % is scaled to controls: 0 for no effect and ±100 for the full control effect; nearly all actives have a fitted effect of over 50% in size
Condition Parameters: RealTime-Glo luminescence; series mostly up to 76.8 µM
Inconclusive results are not listed. The source made the active and inactive calls. Calls follow the shape of the dose curve; as a rule, active = well fitted cell-killing curve with a large enough effect in the repeat runs; inconclusive = weak or mixed curves, or effect the other way; inactive = flat fitted curve, though single readings scatter.
Just give me one of these, please: yes (1) (active), no (0) (inactive)

## Input Status in this test for "COc1ccc(Br)c(C)c1" ?
## Output no (0)

## Input Status in this test for "CCCCNC1CC(C)(C)NC(C)(C)C1" ?
## Output no (0)

## Input Status in this test for "CCCC/C=C/C=C\C=O" ?
## Output no (0)

## Input Status in this test for "O=C(NCCc1c[nH]c2ccccc12)c1cccnc1" ?
## Output no (0)

## Input Status in this test for "C=C(C)C(=O)OCCNC(C)(C)C" ?
## Output no (0)

## Input Status in this test for "CCCCCCN" ?
## Output no (0)

## Input Status in this test for "OCCN(CCO)c1cccc(Cl)c1" ?
## Output no (0)

## Input Status in this test for CC(N)C(=O)OC(C)(C)Cc1ccc(Cl)cc1 (configuration not stated) ?
## Output no (0)

## Input Status in this test for "CCCCCCCCCCCCCC" ?
## Output no (0)

## Input Status in this test for "O=C(OCC1(COC(=O)c2cccnc2)CCCC(COC(=O)c2cccnc2)(COC(=O)c2cccnc2)C1O)c1cccnc1" ?
## Output no (0)

## Input Status in this test for "CC(=O)c1ccc2c(c1)Cc1ccccc1-2" ?
## Output no (0)

## Input Status in this test for "CCCCCCCCC(=O)Cl" ?
## Output no (0)

## Input Status in this test for "Cc1c(I)c(=O)n(-c2ccccc2)n1C" ?
## Output no (0)

###

Tested System: Luciferin 4-monooxygenase (Photinus pyralis)
Procedure Text: qHTS assay to identify small molecule inhibitors of firefly luciferase (AID 1224835); also: nearly all actives have a fitted effect of over 25% in size
Condition Parameters: purified P. pyralis luciferase, luminescence inhibition; series mostly up to 115 µM
Inconclusive results are not listed. Activity calls are given as the source filed them. Calls come from the whole dose curve; as a rule, active = well fitted inhibition curve with a large enough effect in the repeat runs; inconclusive = weak or mixed curves; inactive = flat fitted curve, though single readings scatter.
Just give me one of these, please: active, inactive

CC(C)NCC(O)COc1ccc(COCCOC(C)C)cc1 (stereo unspecified); inactive
CCOC(=O)c1ncn2c1CN(C)C(=O)c1cc(F)ccc1-2; inactive
COCCOCCOCCOCCO; inactive
CN(C)C(=O)CNC(=O)Cc1ccccc1; inactive
CC(=O)c1sc(C)nc1C; inactive
CCN(C)C(=O)Oc1cccc([C@H](C)N(C)C)c1; inactive

## Input Status in this test for "O=C(c1ccc(O)cc1)c1ccc(O)c(O)c1O" ?
## Output active

## Input Status in this test for "CC(C)(C)c1n[nH]c(=S)n(N)c1=O" ?
## Output inactive

## Input Status in this test for "OCCN(CCO)c1cccc(Cl)c1" ?
## Output inactive

## Input Status in this test for "c1ccc2nccnc2c1" ?
## Output inactive

## Input Status in this test for "CC1(C)S[C@@H]2[C@H](N=CN3CCCCCC3)C(=O)N2[C@H]1C(=O)O" ?
## Output inactive

## Input Status in this test for "COC(=O)CCCCCCCC(=O)OC" ?
## Output inactive

## Input Status in this test for "CCCCCCN" ?
## Output inactive

## Input Status in this test for "CCCCNC1CC(C)(C)NC(C)(C)C1" ?
## Output inactive
